- target-under-test: T1, human IL-6 (human, UniProt P05231 30-212)
- T1 construct: IL-6 flowed over captured antibodies
- T1 sequence (P05231 30-212 limits assumed): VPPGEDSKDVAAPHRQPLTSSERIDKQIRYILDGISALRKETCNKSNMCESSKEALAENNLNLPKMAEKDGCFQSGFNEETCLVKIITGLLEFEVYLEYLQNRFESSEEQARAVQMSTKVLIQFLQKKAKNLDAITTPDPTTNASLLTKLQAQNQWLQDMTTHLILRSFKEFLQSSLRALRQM
- experiment-summary: SPR Biacore, supernatant Ab on Protein A chip, 37 C
- Procedure: Antibodies were captured on a Protein A chip (GE) by injecting 1:20 cell supernatant dilutions at 10 μL/min for 60 seconds. […] The sensor chip was regenerated by a 60 seconds injection of 10 mM Glycine pH 1.7 at the flow rate of 50 μL/min. […] For this setup, 1 μg/mL of purified antibody was injected over a Protein A chip at 10 μL/min for 25 seconds. […] The sensor chip was regenerated by a 60 seconds injection of 10 mM Glycine pH 1.7 at flow rate of 50 μL/min. […]
value-kind: pKd
For clarity, pKd is expressed as the negative log10 of concentration in mol/L.

Solved entries:
anti-IL-6 antibody, heavy chain T63A, G66D / light chain M32L, M50D, N52S, M88Q (antibody, IgG1, V domains shown, Full IgG1 (Expi293); VL = variant III) VH: EVQLVESGGGLVQPGGSLRLSCAASGFTFSPFAMSWVRQAPGKGLEWVAKISPGGSWTYYSDAVTDRFTFSLDTSKSTAYLQMNSLRAEDTAVYYCARQLWGYYALDIWGQGTLVTVSS VL: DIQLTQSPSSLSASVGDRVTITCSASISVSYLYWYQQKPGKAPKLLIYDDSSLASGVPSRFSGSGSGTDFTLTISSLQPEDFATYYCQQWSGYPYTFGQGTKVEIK : 9.57
anti-IL-6 antibody, heavy chain T63Q, G66D / light chain M32L, M50D, N52S, M88Q (antibody, IgG1, V domains shown, Full IgG1 (Expi293); VL = variant III) VH: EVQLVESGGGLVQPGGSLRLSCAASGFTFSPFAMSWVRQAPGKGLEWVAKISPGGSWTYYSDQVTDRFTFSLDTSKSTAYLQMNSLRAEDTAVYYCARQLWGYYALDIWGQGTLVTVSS VL: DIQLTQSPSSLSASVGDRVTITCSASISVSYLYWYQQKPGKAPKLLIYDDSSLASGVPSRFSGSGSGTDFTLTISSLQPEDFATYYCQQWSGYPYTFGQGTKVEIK : 9.59
anti-IL-6 antibody, heavy chain S35H, G66D / light chain M32L, M50D, N52S, M88Q (antibody, IgG1, V domains shown, Full IgG1 (Expi293); VL = variant III) VH: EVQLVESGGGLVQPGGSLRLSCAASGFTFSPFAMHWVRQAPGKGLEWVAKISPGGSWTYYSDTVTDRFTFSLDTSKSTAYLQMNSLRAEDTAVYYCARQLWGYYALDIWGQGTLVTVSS VL: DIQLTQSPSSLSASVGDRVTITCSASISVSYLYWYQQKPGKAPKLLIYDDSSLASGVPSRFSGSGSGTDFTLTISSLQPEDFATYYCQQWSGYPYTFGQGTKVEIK : 9.78
anti-IL-6 antibody, heavy chain S35P, G66D / light chain M32L, M50D, N52S, M88Q (antibody, IgG1, V domains shown, Full IgG1 (Expi293); VL = variant III) VH: EVQLVESGGGLVQPGGSLRLSCAASGFTFSPFAMPWVRQAPGKGLEWVAKISPGGSWTYYSDTVTDRFTFSLDTSKSTAYLQMNSLRAEDTAVYYCARQLWGYYALDIWGQGTLVTVSS VL: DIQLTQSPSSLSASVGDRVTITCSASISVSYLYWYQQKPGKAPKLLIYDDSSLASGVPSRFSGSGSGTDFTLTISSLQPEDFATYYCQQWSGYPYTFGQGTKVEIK : 7.57
anti-IL-6 antibody, heavy chain T65H, G66D / light chain M32L, M50D, N52S, M88Q (antibody, IgG1, V domains shown, Full IgG1 (Expi293); VL = variant III) VH: EVQLVESGGGLVQPGGSLRLSCAASGFTFSPFAMSWVRQAPGKGLEWVAKISPGGSWTYYSDTVHDRFTFSLDTSKSTAYLQMNSLRAEDTAVYYCARQLWGYYALDIWGQGTLVTVSS VL: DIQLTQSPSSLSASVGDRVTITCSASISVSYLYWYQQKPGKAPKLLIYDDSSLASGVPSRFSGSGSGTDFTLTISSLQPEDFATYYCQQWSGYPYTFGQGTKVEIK : 9.53

As a next step, examine the binder that follows.
Read the entry anti-IL-6 antibody, heavy chain T65K, G66D / light chain M32L, M50D, N52S, M88Q (antibody, IgG1, V domains shown, Full IgG1 (Expi293); VL = variant III) VH: EVQLVESGGGLVQPGGSLRLSCAASGFTFSPFAMSWVRQAPGKGLEWVAKISPGGSWTYYSDTVKDRFTFSLDTSKSTAYLQMNSLRAEDTAVYYCARQLWGYYALDIWGQGTLVTVSS VL: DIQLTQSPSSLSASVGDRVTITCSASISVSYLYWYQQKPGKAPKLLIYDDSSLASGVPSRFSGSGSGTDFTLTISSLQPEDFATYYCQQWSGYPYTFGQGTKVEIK and write its reported pKd.
9.45
